The measured values listed here are drawn from paper PMC3097502.

Molecular target: UniProt Q27686
reported-property: IC50 (µM)
I only need the number, in µM, no unit after it.

What value of measured IC50 is listed for C=C(C)[C@@H](CC)CC(O)[C@@H](C)[C@H]1CC[C@H]2[C@@H]3CC=C4C[C@@H](O)CC[C@]4(C)[C@H]3CC[C@]12C (stereo partly drawn) [Compound 1, (3β,24S)-Stigmasta-5,25-diene-3,22-diol] ? 30

----------
Molecular target: PyK of Leishmania mexicana (Leishmania mexicana, UniProt Q27686)
Sequence (Q27686 whole entry): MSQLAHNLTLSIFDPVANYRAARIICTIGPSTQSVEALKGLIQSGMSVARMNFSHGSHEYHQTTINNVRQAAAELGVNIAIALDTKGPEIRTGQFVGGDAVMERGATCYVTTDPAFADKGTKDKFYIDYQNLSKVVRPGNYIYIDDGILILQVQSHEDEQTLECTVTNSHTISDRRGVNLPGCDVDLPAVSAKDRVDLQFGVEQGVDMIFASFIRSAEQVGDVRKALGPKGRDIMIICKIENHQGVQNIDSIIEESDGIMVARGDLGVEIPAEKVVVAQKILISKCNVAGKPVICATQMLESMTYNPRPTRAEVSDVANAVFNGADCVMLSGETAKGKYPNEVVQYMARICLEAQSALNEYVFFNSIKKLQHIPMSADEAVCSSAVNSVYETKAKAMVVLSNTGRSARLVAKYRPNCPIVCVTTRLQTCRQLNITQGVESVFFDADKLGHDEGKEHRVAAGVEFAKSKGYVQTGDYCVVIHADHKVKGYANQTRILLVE
reported-property: Ki (µM)
I only need the number, in µM, no unit after it.

What value of measured Ki is listed for C=C(C)[C@@H](CC)CC(O)[C@@H](C)[C@H]1CC[C@H]2[C@@H]3CC=C4C[C@@H](O)CC[C@]4(C)[C@H]3CC[C@]12C (stereo partly drawn) [Compound 1, (3β,24S)-Stigmasta-5,25-diene-3,22-diol] ? 24
